Recorded E-values DhaA, one value per entry.
- Measurement target: UniProt:P0A3G2
- Sequence (P0A3G2 whole entry): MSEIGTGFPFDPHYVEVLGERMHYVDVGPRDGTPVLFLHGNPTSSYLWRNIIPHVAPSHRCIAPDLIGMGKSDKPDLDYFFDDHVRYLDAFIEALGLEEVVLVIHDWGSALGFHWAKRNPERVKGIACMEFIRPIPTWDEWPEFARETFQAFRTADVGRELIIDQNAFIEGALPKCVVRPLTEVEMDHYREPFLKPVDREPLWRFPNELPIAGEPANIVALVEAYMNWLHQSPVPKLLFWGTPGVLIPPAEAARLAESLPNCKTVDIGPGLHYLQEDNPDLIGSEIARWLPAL
- Assay type: biochemical, Rhodococcus rhodochrous NCIMB 13064
Measure name: E-values DhaA

Compound | Measurement target | Bound sign | Data value
COC(=O)C(Br)CCBr (racemic) [methyl 2,4-dibromobutyrate] | UniProt:P0A3G2 | = | 1
CCOC(=O)C(C)Br (racemic) [ethyl 2-bromopropionate] | UniProt:P0A3G2 | = | 59
CCC(Br)CBr (racemic) [1,2-dibromobutane] | UniProt:P0A3G2 | = | 2
CCCC(C)Br (racemic) [2-bromopentane] | UniProt:P0A3G2 | = | 7
CC(Cl)CCCl (racemic) [1,3-dichlorobutane] | UniProt:P0A3G2 | = | 1.6
CC(Br)C(=O)c1ccccc1 (racemic) [2-bromopropiophenone] | UniProt:P0A3G2 | > | 200
COC(=O)C(C)Br (racemic) [methyl 2-bromopropionate] | UniProt:P0A3G2 | = | 68
